Listing of entries alongside the reported pIC50.
# Assay Target: PI3Kβ (Homo sapiens, UniProt P42338)
# Sequence (P42338 whole entry, one chain of several): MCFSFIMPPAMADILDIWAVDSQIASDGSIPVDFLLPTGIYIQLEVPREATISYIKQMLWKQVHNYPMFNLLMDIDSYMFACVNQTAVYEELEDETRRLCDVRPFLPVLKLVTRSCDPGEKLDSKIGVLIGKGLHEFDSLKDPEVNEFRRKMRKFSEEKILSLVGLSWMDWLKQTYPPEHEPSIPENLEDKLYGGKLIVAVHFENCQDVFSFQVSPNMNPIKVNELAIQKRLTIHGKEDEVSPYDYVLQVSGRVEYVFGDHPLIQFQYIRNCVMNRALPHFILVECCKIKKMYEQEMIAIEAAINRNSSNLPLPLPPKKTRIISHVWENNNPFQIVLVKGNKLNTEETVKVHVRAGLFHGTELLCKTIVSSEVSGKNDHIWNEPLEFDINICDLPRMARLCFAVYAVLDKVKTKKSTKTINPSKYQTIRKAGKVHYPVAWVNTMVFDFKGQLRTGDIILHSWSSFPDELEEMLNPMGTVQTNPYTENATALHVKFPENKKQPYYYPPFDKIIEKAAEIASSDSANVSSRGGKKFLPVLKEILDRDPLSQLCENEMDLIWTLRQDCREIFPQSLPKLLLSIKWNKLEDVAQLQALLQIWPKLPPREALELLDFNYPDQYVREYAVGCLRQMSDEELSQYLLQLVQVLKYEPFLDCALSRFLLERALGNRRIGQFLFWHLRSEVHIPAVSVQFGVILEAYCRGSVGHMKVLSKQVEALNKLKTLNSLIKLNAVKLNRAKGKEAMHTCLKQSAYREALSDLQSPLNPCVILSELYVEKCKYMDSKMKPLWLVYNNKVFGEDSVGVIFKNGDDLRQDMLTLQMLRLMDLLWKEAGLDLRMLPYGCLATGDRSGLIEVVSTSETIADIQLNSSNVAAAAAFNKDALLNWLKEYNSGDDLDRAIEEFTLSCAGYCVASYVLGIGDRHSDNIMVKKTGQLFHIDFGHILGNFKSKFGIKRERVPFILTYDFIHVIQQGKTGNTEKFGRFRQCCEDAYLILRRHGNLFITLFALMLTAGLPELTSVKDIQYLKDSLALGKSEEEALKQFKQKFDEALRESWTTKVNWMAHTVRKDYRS
# Assay Summary: In vitro determination of the PI3K enzyme inhibitory activity in the cell free assay (ADP-Glo Kinase Assay), PI3Kβ
# Applied Conditions: ATP 100 μM, read-out: PI3K beta inhibition
pIC50: −log10 of the molar value.

Example entries begin here.
molecule="CC(c1cc2ccccn2c1-c1ccccn1)n1nc(-c2cnc(N)s2)c2c(N)ncnc21 (stereo not shown)" reading="6.00 to 8.00"
molecule=N#Cc1c(N)ncnc1NCc1cn2ccccc2c1-c1cccc(F)c1 reading="< 6.00"
molecule="CC(Nc1ncnc(N)c1C#N)c1cc2ccccn2c1C#CCO (stereo not shown)" reading="6.00 to 8.00"
molecule="CC(c1cc2ccccn2c1-c1ccccn1)n1nc(-c2cc(O)cc(Cl)c2)c2c(N)ncnc21 (stereo not shown)" reading="6.00 to 8.00"
molecule="CC(Nc1ncnc(N)c1CN1CCOCC1)c1cc2ccccn2c1-c1ccccn1 (stereo not shown)" reading="< 6.00"
molecule="Cc1cccc2cc(C(C)Nc3ncnc(N)c3C#N)c(-c3ccccn3)n12 (stereo not shown)" reading="< 6.00"

Sample CC(c1cc2ccccn2c1-c1cscn1)n1nc(-c2cc(O)cc(F)c2)c2c(N)ncnc21 (stereo not shown) ; pIC50 observed: 6.00 to 8.00

Sample CC(c1cc2ccccn2c1-c1ccc(OCCN2CCOCC2)cn1)n1nc(-c2cc(O)cc(F)c2)c2c(N)ncnc21 (stereo not shown) ; pIC50 observed: 6.00 to 8.00

Sample Cc1ccc2cc(C(C)n3nc(-c4cc(O)cc(F)c4)c4c(N)ncnc43)c(-c3ccccn3)n2c1 (stereo not shown) ; pIC50 observed: 6.00 to 8.00

Sample CC(c1cc2ccccn2c1-c1ccccn1)n1nc(-c2cc(O)cc(C(F)(F)F)c2)c2c(N)ncnc21 (stereo not shown) ; pIC50 observed: 6.00 to 8.00

Sample C[C@H](c1cc2ccccn2c1-c1ccc(CN2CCOCC2)cn1)n1nc(-c2cc(O)cc(F)c2)c2c(N)ncnc21 (single isomer, unassigned) [Example 108b] ; pIC50 observed: 6.00 to 8.00

Sample CC(c1cc2ccccn2c1-c1ccc(=O)n(CCN2CCOCC2)n1)n1nc(-c2cc(O)cc(F)c2)c2c(N)ncnc21 (stereo not shown) ; pIC50 observed: 6.00 to 8.00

Sample CC(c1cc2ccccn2c1CN1CCC2(CCCN(C)C2)CC1)n1nc(-c2cc(O)cc(F)c2)c2c(N)ncnc21 (stereo not shown) ; pIC50 observed: < 6.00

Sample "N#Cc1c(N)ncnc1NCc1cn2ccccc2c1-c1ccccc1" ; pIC50 observed: < 6.00

Sample CC(c1c(C(F)(F)F)c2ccccn2c1-c1ccccn1)n1nc(-c2cc(O)cc(F)c2)c2c(N)ncnc21 (stereo not shown) ; pIC50 observed: 6.00 to 8.00

Sample CC(c1c(C#N)c2ccccn2c1-c1ccccn1)n1nc(-c2cc(O)cc(F)c2)c2c(N)ncnc21 (stereo not shown) ; pIC50 observed: 6.00 to 8.00

Sample Cc1c(N)ncnc1NC(C)c1cc2ccccn2c1-c1ccccn1 (stereo not shown) ; pIC50 observed: < 6.00

Sample Cc1cc(-c2c(C(C)n3nc(-c4cncc(O)c4)c4c(N)ncnc43)cc3ccccn23)ccn1 (stereo not shown) ; pIC50 observed: 6.00 to 8.00

Sample CC(Nc1ncnc(N)c1C#N)c1cc2ccccn2c1C1=CCOCC1 (stereo not shown) ; pIC50 observed: 6.00 to 8.00

Sample CC(NC(=O)c1nccnc1N)c1cc2ccccn2c1-c1ccccn1 (stereo not shown) ; pIC50 observed: < 6.00

Sample CC(c1cc2ccccn2c1CN1CCOCC1)n1nc(-c2cc(O)cc(F)c2)c2c(N)ncnc21 (stereo not shown) ; pIC50 observed: 6.00 to 8.00

Sample CC(c1cc2ccccn2c1N1CCN(C)CC1=O)n1nc(-c2cc(O)cc(F)c2)c2c(N)ncnc21 (stereo not shown) ; pIC50 observed: 6.00 to 8.00

Sample CC(c1cc2ccccn2c1-c1ccncc1)n1nc(-c2cc(O)cc(F)c2)c2c(N)ncnc21 (racemic) ; pIC50 observed: 6.00 to 8.00

Sample CC(c1cc2ccccn2c1-c1ccccn1)n1nc(-c2cccc(O)c2)c2c(N)ncnc21 (stereo not shown) ; pIC50 observed: 6.00 to 8.00

Sample CC(Nc1ncnc(N)c1/C=N/O)c1cc2ccccn2c1-c1ccccn1 (stereo not shown) ; pIC50 observed: 6.00 to 8.00

Sample CC(Nc1ncnc(N)c1C#N)c1cc2ccccn2c1-c1cccs1 (stereo not shown) ; pIC50 observed: < 6.00

Sample C[C@H](c1cc2ccccn2c1-c1cccc(CN(C)C)c1)n1nc(-c2cc(O)cc(F)c2)c2c(N)ncnc21 (single isomer, unassigned) [Example 93a] ; pIC50 observed: 6.00 to 8.00

Sample CC(c1cc2ccccn2c1-c1cncs1)n1nc(-c2cc(O)cc(F)c2)c2c(N)ncnc21 (stereo not shown) ; pIC50 observed: 6.00 to 8.00

---

Listing of entries alongside the reported pIC50.
# Assay Target: PI3Kδ (Homo sapiens, UniProt O00329)
# Sequence (O00329 whole entry): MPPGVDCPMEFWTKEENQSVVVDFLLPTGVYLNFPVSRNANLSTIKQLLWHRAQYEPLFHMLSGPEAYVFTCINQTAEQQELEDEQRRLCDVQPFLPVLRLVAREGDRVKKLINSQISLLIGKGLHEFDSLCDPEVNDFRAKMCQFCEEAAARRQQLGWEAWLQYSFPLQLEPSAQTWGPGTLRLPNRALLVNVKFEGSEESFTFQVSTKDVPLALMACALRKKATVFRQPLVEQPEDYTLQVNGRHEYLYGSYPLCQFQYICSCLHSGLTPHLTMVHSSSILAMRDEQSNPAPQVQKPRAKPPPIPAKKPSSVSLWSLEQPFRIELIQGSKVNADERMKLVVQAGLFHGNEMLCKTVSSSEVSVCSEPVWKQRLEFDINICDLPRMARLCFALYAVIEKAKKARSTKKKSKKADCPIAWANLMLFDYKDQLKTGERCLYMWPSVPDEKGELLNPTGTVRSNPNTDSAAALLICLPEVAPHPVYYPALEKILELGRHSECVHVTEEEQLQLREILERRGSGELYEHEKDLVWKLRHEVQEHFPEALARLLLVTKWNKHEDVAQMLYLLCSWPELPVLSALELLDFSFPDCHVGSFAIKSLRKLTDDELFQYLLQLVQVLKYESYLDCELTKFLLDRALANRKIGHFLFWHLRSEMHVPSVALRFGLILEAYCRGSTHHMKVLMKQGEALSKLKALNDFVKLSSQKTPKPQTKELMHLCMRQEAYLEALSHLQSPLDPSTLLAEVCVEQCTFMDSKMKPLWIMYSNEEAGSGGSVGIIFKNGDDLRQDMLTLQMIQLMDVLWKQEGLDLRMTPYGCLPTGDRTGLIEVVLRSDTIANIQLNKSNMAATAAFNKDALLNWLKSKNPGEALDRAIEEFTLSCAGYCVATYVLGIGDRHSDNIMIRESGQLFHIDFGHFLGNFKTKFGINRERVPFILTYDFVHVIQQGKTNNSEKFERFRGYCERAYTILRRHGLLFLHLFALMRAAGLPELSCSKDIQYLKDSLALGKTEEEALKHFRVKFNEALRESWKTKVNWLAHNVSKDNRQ
# Sequence (P27986 whole entry partner): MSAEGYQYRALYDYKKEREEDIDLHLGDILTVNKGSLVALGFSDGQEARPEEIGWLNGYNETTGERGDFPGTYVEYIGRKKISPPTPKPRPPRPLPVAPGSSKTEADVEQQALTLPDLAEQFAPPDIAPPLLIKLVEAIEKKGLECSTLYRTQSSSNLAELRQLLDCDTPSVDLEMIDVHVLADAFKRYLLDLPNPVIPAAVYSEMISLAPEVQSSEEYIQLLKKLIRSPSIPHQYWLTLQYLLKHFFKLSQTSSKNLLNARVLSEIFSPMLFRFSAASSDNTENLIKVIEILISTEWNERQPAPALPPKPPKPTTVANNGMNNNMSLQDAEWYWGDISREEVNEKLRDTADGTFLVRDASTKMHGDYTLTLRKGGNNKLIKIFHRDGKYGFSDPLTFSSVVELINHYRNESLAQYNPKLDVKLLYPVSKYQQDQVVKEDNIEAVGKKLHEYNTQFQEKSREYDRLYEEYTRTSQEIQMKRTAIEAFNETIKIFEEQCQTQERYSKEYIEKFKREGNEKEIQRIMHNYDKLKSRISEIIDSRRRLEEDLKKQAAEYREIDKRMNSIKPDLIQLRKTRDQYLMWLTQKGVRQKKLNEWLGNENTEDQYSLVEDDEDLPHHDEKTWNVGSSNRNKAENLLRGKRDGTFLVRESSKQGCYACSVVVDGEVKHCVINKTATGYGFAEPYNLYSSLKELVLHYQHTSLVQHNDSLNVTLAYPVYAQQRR
# Assay Summary: In vitro determination of the PI3K enzyme inhibitory activity in the cell free assay (ADP-Glo Kinase Assay), PI3Kδ
# Applied Conditions: ATP 80 μM, read-out: PI3K delta inhibition
pIC50: −log10 of the molar value.

Sample "N#Cc1c(N)ncnc1NCc1cn2ccccc2c1-c1ccccc1" ; pIC50 observed: < 6.00

---

Listing of entries alongside the reported IC50.
# Assay Target: PI3Kβ (Homo sapiens)
# Assay Summary: In vitro determination of the PI3K enzyme inhibitory activity in the cell free assay (ADP-Glo Kinase Assay), PI3Kβ
# Applied Conditions: ATP 100 μM, read-out: PI3K beta inhibition

Example entries begin here.
molecule="CC(c1cc2ccccn2c1-c1cccc(CN(C)C)c1)n1nc(-c2cc(O)cc(F)c2)c2c(N)ncnc21 (racemic) [Example 93]" reading="10 to 1000 nM"
molecule="CC(c1cc2ccccn2c1-c1cccc(CN2CCN(C)CC2)n1)n1nc(-c2cc(O)cc(F)c2)c2c(N)ncnc21 (stereo not drawn) [Example 115]" reading="10 to 1000 nM"
molecule="Cc1ccccc1-c1c(Cn2cnc3c(N)ncnc32)cc2ccccn12 [Example 7]" reading="> 1000 nM"
molecule="CC(c1cc2ccccn2c1-c1ccc(C(=O)N2CCOCC2)cn1)n1nc(-c2cc(O)cc(F)c2)c2c(N)ncnc21 (stereo not drawn) [Example 125]" reading="10 to 1000 nM"
molecule="CC(c1cc2ccccn2c1-c1ccccn1)n1nc(C#CCO)c2c(N)ncnc21 (stereo not drawn) [Example 102]" reading="> 1000 nM"
molecule="C[C@H](c1cc2ccccn2c1-c1ccn(CCN2CCOCC2)c(=O)c1)n1nc(-c2cc(O)cc(F)c2)c2c(N)ncnc21 (single isomer, unassigned) [Example 121a]" reading="> 1000 nM"
molecule="CC(Nc1ncnc(N)c1C#N)c1cc2ccccn2c1C1=CCNCC1 (stereo not drawn) [Example 45]" reading="10 to 1000 nM"
molecule="CC(c1cc2ccccn2c1-c1ccc(OCCN(C)C)nn1)n1nc(-c2cc(O)cc(F)c2)c2c(N)ncnc21 (stereo not drawn) [Example 138]" reading="10 to 1000 nM"
molecule="N#Cc1c(N)ncnc1NCc1cc2ccccn2c1-c1cccc(F)c1 [Example 24]" reading="> 1000 nM"
molecule="Cc1ccn2c(-c3ccccn3)c(C(C)n3nc(-c4cc(O)cc(F)c4)c4c(N)ncnc43)cc2c1 (stereo not drawn) [Example 105]" reading="> 1000 nM"

Sample CNC(=O)c1c(N)ncnc1NC(C)c1cc2ccccn2c1-c1ccccn1 (stereo not drawn) [Example 51] ; IC50 observed: > 1000 nM

Sample C[C@H](c1cc2ccccn2c1-c1ccc(CN2CCN(C)CC2)cn1)n1nc(-c2cc(O)cc(F)c2)c2c(N)ncnc21 (single isomer, unassigned) [Example 114a] ; IC50 observed: 10 to 1000 nM

Sample CC(c1cc2ccccn2c1-c1ccccn1)n1nc(-c2cc(O)cc(F)c2)c2c(N)ncnc21 (racemic) [Example 79] ; IC50 observed: 10 to 1000 nM

Sample CC(Nc1ncnc(N)c1C(N)=O)c1cc2ccccn2c1-c1ccccn1 (stereo not drawn) [Example 52] ; IC50 observed: > 1000 nM

Sample CC(Nc1ncnc(N)c1C=O)c1cc2ccccn2c1-c1ccccn1 (stereo not drawn) [Example 47] ; IC50 observed: 10 to 1000 nM

---

# Assay Target: PI3Kδ (Homo sapiens)
# Construct: purchased Millipore Ltd (Billerica, Mass.)
# Assay Summary: In vitro determination of the PI3K enzyme inhibitory activity in the cell free assay (ADP-Glo Kinase Assay), PI3Kδ
# Assay type: biochemical
# Applied Conditions: ATP 80 μM, read-out: PI3K delta inhibition
pIC50: −log10 of the molar value.
Outcome Measure: pIC50

molecule="CC(c1cc2ccccn2c1-c1ccccn1)n1nc(-c2cc(F)cc(NS(C)(=O)=O)c2)c2c(N)ncnc21 (stereo not shown)" reading="6.00 to 8.00"
molecule="CC(c1cc2ccccn2c1-c1ccccc1F)n1nc(-c2cc(O)cc(F)c2)c2c(N)ncnc21 (stereo not shown)" reading="6.00 to 8.00"
molecule="CC(c1cc2ccccn2c1-c1ccccn1)n1nc(-c2cc(O)cc(Cl)c2)c2c(N)ncnc21 (stereo not shown)" reading="> 8.00"

Next item in the queue.
Given the molecule CC(c1cc2cc(Cl)ccn2c1-c1ccccn1)n1nc(-c2cc(O)cc(F)c2)c2c(N)ncnc21 (stereo not shown) and test system PI3Kδ (Homo sapiens), the measured pIC50 is > 8.00
